FYI, the data here is from paper PMC4523432.

Biological target: UniProt Q61474
Sequence (Q61474 20-107): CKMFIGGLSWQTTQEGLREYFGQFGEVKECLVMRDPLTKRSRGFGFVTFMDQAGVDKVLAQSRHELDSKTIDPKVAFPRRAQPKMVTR
Assay metric: Ki

State its Ki for this compound: Cc1cc2c(C(C)C)c(O)c(O)c(C=O)c2c(O)c1-c1c(C)cc2c(C(C)C)c(O)c(O)c(C=O)c2c1O [(–)-G, (–)-gossypol]
476 nM
